Target: human Oxytocin Receptor (hOTR) (Homo sapiens, UniProt P30559)
Sequence (P30559 1-389): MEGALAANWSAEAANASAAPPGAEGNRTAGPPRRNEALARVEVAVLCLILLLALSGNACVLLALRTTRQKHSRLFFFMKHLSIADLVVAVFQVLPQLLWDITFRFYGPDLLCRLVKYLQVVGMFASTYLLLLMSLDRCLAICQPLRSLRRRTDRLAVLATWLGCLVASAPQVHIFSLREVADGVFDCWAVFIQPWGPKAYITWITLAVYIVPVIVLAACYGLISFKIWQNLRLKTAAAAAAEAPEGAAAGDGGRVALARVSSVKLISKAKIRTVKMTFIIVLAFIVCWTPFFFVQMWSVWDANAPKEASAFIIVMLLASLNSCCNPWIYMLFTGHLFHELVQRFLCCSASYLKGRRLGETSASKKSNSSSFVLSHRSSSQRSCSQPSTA
Assay: Oxytocin receptor (OTR) antagonist assay (FLIPR calcium, CHEM-1-hOTR cells)
pIC50: −log10 of the molar value.
# maps each entry to its pIC50
ATTRIBUTE MEASURED: pIC50

# COMPOUND, TEST VALUE
rows = [
    ("Cc1nc(N2CC3(CN(C(=O)N4CCOc5cc(Cl)ccc54)C3)C2)ccc1F [1-30]", "6.00 to 6.30"),
    ("O=C(N1CC2(C1)CN(c1cnccn1)C2)N1CCC(O)c2cc(Cl)ccc21 (single isomer, unassigned) [13-3-A]", "≤ 6.00"),
    ("Cc1cncc(N2CC3(CN(C(=O)N4c5ccc(F)cc5OCC4C)C3)C2)n1 (stereo not shown) [20-2]", "6.30 to 7.00"),
    ("CC1COc2cc(Cl)ccc2N1C(=O)N1CC2(C1)CN(c1ccncn1)C2 (stereo not shown) [21-6]", "6.30 to 7.00"),
]

* * *

Molecular target: human Oxytocin Receptor (hOTR) (Homo sapiens)
Sequence (P30559 1-389): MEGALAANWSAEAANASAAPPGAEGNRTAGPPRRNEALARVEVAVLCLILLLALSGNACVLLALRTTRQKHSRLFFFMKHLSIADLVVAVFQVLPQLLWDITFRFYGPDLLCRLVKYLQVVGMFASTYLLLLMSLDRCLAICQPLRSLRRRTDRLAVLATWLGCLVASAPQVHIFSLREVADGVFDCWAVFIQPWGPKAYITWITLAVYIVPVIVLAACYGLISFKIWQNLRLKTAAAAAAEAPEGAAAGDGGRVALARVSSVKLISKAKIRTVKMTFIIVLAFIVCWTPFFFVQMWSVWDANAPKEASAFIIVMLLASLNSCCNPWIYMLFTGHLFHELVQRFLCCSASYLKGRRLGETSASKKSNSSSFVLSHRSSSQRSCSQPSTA
Assay: Oxytocin receptor (OTR) antagonist assay (FLIPR calcium, CHEM-1-hOTR cells)
ATTRIBUTE MEASURED: IC50

# COMPOUND, ATTRIBUTE MEASURED, TEST VALUE
data = [
    ("CC1COc2cc(Cl)ccc2N1C(=O)N1CC2(C1)CN(c1cccnn1)C2 (single isomer, unassigned) [9-1-B]", "IC50", "100 to 500 nM"),
    ("O=C(N1CC2(C1)CN(c1cc(F)cc(F)n1)C2)N1CCOc2cc(Cl)ccc21", "IC50", "≥ 1000 nM"),
    ("CC1COc2cc(Cl)ccc2N1C(=O)N1CC2(C1)CN(c1cc(C#N)ccn1)C2 (single isomer, unassigned) [20-6-B]", "IC50", "< 100 nM"),
]

* * *

Target: UniProtKB P30518
Sequence (P30518 whole entry): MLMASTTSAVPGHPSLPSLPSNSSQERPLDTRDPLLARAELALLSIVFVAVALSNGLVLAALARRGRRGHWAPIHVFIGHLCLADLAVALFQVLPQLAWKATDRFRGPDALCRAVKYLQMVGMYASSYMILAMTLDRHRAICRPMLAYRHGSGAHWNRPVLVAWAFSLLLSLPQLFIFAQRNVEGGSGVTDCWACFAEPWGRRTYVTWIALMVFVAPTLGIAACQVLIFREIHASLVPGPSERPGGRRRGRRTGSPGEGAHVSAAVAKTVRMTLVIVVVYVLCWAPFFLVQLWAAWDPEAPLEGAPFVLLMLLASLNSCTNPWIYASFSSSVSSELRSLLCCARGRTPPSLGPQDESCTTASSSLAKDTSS
Experiment: Vasopressin V2 receptor antagonist assay (TR-FRET cAMP, 1321N1 cells)

# MOLECULE, IC50
rows = [
    ("CC1Cc2cc(Cl)ccc2N1C(=O)N1CC2(C1)CN(c1ccc(F)cn1)C2 (stereo not drawn) [8-16]", "< 100 nM"),
    ("O=C(N1CC2(C1)CN(c1ccccn1)C2)N1CCc2cc(Cl)ccc21 [1-77]", "≥ 1000 nM"),
    ("CC1COc2cc(F)ccc2N1C(=O)N1CC2(C1)CN(c1ncccn1)C2 (stereo not drawn) [18-1]", "≥ 1000 nM"),
]

* * *

Target: MDR1 (P-glycoprotein) (Homo sapiens)
Construct: host or cells: MDCK (MDR1-MDCK; wild-type MDCK as comparator)
Sequence (P08183 whole entry): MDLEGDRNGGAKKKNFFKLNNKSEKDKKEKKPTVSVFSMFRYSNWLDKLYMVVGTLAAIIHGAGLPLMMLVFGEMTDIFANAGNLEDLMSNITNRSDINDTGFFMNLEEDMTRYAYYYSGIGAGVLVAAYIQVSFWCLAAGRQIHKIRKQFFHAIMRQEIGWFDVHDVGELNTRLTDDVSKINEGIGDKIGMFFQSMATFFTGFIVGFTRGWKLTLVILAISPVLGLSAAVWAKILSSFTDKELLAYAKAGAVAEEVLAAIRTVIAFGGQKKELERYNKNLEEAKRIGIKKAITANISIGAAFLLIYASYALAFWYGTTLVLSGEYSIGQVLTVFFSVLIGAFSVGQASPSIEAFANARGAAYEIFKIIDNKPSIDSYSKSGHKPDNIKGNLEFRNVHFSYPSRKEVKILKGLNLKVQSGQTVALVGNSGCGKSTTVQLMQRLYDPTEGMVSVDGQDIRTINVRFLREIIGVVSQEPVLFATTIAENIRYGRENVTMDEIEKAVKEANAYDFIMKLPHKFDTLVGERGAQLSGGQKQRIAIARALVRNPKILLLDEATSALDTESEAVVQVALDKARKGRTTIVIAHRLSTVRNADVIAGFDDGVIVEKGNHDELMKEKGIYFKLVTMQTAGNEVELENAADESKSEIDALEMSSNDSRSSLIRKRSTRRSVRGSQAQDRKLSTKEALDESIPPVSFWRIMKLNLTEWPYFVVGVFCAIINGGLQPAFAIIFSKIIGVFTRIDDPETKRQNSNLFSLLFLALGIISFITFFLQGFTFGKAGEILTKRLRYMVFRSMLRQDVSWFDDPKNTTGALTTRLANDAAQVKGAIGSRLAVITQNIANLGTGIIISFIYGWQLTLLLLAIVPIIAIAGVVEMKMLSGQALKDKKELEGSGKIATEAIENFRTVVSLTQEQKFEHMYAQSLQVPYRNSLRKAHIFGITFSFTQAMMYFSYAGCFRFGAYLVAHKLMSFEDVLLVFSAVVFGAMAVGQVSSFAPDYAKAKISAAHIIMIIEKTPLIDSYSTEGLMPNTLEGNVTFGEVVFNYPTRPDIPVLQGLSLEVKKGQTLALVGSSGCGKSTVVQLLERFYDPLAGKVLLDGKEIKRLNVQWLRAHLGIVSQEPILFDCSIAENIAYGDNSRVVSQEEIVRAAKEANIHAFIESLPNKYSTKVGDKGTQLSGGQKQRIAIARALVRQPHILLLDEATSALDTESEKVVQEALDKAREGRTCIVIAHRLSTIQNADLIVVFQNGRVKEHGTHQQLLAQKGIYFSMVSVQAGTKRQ
Assay: MDR1-MDCK permeability and efflux assay (Papp, efflux ratio, effective efflux ratio)
Type: in vitro ADME
Settings: dog, MDCK-MDR1, pH 7.4, ER(MDR1-MDCK)/ER(wild-type MDCK); read-out: EER (Effective Efflux Ratio)
# efflux ratio at 1 h, 10 μM annotations
ATTRIBUTE MEASURED: efflux ratio at 1 h, 10 μM

# COMPOUND, ATTRIBUTE MEASURED, TEST VALUE
records = [
    ("Cc1cncc(N2CC3(CN(C(=O)N4c5ccc(F)cc5OCC4C)C3)C2)n1 (single isomer, unassigned) [20-2-A]", "efflux ratio at 1 h, 10 μM", "1 to 2"),
    ("Cc1cncc(N2CC3(CN(C(=O)N4c5ccc(F)cc5OCC4C)C3)C2)n1 (stereo not shown) [20-2]", "efflux ratio at 1 h, 10 μM", "1 to 2"),
    ("CC1COc2cc(Cl)ccc2N1C(=O)N1CC2(C1)CN(c1cccnn1)C2 (single isomer, unassigned)", "efflux ratio at 1 h, 10 μM", "2 to 3"),
    ("COc1ccc2c(c1)OCC(C)N2C(=O)N1CC2(C1)CN(c1ccc(F)cn1)C2 (single isomer, unassigned)", "efflux ratio at 1 h, 10 μM", "1 to 2"),
]
